src = ChEMBL document CHEMBL1142921

biological target: Aromatase (Homo sapiens, UniProt P11511); experiment: Inhibition of human recombinant aromatase at 1 uM after 30 mins relative to control; settings: 0.5 h
Sequence (P11511 whole entry): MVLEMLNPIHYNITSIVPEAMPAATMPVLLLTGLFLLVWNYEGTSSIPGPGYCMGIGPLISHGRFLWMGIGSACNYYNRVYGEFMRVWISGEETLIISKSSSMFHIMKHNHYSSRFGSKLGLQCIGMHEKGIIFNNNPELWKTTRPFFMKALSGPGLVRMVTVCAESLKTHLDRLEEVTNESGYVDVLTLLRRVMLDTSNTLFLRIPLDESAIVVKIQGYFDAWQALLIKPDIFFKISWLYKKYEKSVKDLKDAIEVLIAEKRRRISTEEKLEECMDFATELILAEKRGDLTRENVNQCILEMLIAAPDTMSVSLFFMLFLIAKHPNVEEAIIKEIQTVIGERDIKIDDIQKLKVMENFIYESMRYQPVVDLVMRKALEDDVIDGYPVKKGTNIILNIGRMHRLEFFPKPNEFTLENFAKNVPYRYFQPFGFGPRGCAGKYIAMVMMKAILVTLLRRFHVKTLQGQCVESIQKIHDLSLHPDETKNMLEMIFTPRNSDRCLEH
MEASURE NAME: inhibition at 1 µM (%)
Entry rule: numbers only, all in %.

### Prompt Look up inhibition at 1 µM for this molecule: `CC(C)c1cc(C=O)c([C@@]2(C)CCCC(C)(C)[C@H]2C=O)cc1O`
### Response 24.5

### Prompt Tell me the measured inhibition at 1 µM of `COc1cc2c(cc1C(C)C)C(=O)C[C@H]1C(C)(C)CCC[C@]21C` , please.
### Response 18.1

### Prompt Report inhibition at 1 µM for `CC(=O)N1CCN(c2ccc(OC[C@H]3CO[C@](Cn4ccnc4)(c4ccc(Cl)cc4Cl)O3)cc2)CC1` please.
### Response 84.2

### Prompt Which inhibition at 1 µM value belongs to `CC(C)c1cc(C=O)c2c(c1O)[C@H](O)[C@H]1C(C)(C)CCC[C@]21C` ?
### Response 10.3
